Target: Recombinant human PKC-theta (His-tagged 362-706) (Homo sapiens (Human), UniProt Q04759)
Sequence (Q04759 362-706): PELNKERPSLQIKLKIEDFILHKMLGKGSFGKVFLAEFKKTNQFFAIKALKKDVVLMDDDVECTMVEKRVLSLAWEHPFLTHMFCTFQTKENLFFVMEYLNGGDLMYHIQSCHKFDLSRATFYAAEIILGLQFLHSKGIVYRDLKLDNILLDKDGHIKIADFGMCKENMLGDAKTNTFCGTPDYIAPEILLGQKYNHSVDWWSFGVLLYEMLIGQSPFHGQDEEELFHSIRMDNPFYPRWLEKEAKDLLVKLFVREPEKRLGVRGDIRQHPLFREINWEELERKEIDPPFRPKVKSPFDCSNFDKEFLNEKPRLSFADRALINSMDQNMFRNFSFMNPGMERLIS
Test: PKC-theta inhibition assay (HTRF KinEASE kit)
Assay type: biochemical
Details: ATP 6.5 μM, binned A to H, read-out: PKC-theta HTRF pIC50 (binned) (converted)
Procedure: PKC-theta and PKC-delta biochemical activities were measured using the PKC-theta HTRF KinEASEkit kit, according to manufacturer's instructions (Cisbio, catalogue number 61ST1PEJ). […] Fluorescence was measured on an Envision 2103 plate reader with optical setup for […] in the HTRF mode. The ratio of acceptor and donor emission signals was calculated for each well. […]
experimentalEndpoint: IC50

Some solved cases for reference:
1) CC1(C)C(=O)Nc2nccc(-c3nn(CC4(F)CCNC4)c4ccccc34)c21 (stereo not shown) [Example 96]    1 to 3.16 nM
2) CC[C@]1(C)C(=O)Nc2nccc(-c3nn([C@H]4CCNC[C@H]4F)c4cc(F)ccc34)c21 (single isomer, unassigned) [Example 102]    3.16 to 10 nM
3) CC1(O)C(=O)Nc2nccc(-c3ccn(C4CCNCC4)c3)c21 (stereo not shown) [Example 11]    31.6 to 100 nM
4) CC1(O)C(=O)Nc2nccc(-c3cn([C@@H]4CCNC4)c4ccccc34)c21 (stereo partly shown) [Example 111]    10 to 31.6 nM
5) CC1(C)C(=O)Nc2nccc(-c3nn(C[C@@]4(C)COCCN4)c4cc(F)ccc34)c21 [Example 87]    ≤ 1 nM
6) CO[C@]1(C)C(=O)Nc2nccc(-c3nn(C4(CC#N)CCC4)c4ccccc34)c21 (single isomer, unassigned) [Example 81]    31.6 to 100 nM

IC50 in this record for CC1(C)C(=O)Nc2nccc(-c3nn([C@H]4CCNC4)c4cc(Cl)ccc34)c21 [Example 71] : 3.16 to 10 nM

IC50 in this record for COC1(C)C(=O)Nc2nccc(-c3nn([C@@H]4CCNC[C@@H]4F)c4ccccc34)c21 (stereo partly shown) [Example 61] : 1 to 3.16 nM

IC50 in this record for CC1(C)C(=O)Nc2nccc(-c3cn(C4CCNC4)c4ccccc34)c21 (stereo not shown) [Example 10] : 31.6 to 100 nM

IC50 in this record for CC1(C)C(=O)Nc2nccc(-c3nn(C4(CC#N)COC4)c4ccccc34)c21 [Example 45] : 31.6 to 100 nM

====

Tested on: IL-2 secretion by human effector memory T cells (TEM)
Assay: Effector memory T cells IL-2 release assay
Assay type: cell-based
Details: T-cell; human CD4+ TEM cells, CD3/CD28 bead stimulation, 24 h; binned A to G; read-out: PKC-theta IL2 pIC50 (binned) (converted)
Experimental: Test compound-mediated inhibition of NFκB signalling in T cells was assessed by quantification of the IL-2 secretion by human effector memory T cells (TEM) upon treatment and stimulation. Human TEM cells were isolated from buffy coats of healthy donors obtained from the French blood bank. […]
experimentalEndpoint: IC50

Some solved cases for reference:
1. C[C@@]1(O)C(=O)Nc2nccc(-c3nn(C4CCNCC4)c4cc(C(F)(F)F)ccc34)c21 (single isomer, unassigned)    316 to 1000 nM
2. CC[C@]1(OC)C(=O)Nc2nccc(-c3nn(CC4(F)CCNCC4)c4ccccc34)c21 (single isomer, unassigned)    31.6 to 100 nM

Read the next record carefully.
IC50 in this record for CC1(O)C(=O)Nc2nccc(-c3nn([C@@H]4CC[C@@H](N)[C@H](F)C4)c4ccccc34)c21 (stereo partly drawn) : 3.16 to 10 nM

This collection of values is drawn from patent US20240239794A1.
